Data credit: patent US20250049819A1

# reported MIC50; entries follow
system: C. difficile strains (N = 27); experiment: MIC by broth microdilution against C. difficile clinical isolates; format: cell-based; conditions: Clostridioides difficile; 27 isolates; Wilkins-Chalgren broth, 48 hours anaerobic
Respond numerically; units are µg/mL and should not be typed.

So what does the record say about MIC50 for CN(C)c1cc(CNCC(C)(C)C)c(O)c2c1C[C@H]1C[C@H]3[C@H](N(C)C)C(O)=C(C(N)=O)C(=O)[C@@]3(O)C(O)=C1C2=O (stereo in doubt) [Omadacycline] ?
60

----------
tested on: C. difficile strain ATCC 43596; experiment: MIC90 against the infection model strain; assay type: cell-based; details: Clostridioides difficile, ATCC43596; replicate plate A; read-out: MIC90 Plate A
Each entry below carries its reported MIC90.
Reply numerically in µg/mL, unit not repeated.

Here are 2 compounds together with their reported answers.
>  <compound>
Cc1ncc([N+](=O)[O-])n1CCO

>  <endpoint_name>
MIC90

>  <data_value>
0.06

$$$$
>  <compound>
CN[C@H](CC(C)C)C(=O)N[C@H]1C(=O)N[C@@H](CC(N)=O)C(=O)N[C@H]2C(=O)N[C@H]3C(=O)N[C@H](C(=O)N[C@H](C(=O)O)c4cc(O)cc(O)c4-c4cc3ccc4O)[C@H](O)c3ccc(c(Cl)c3)Oc3cc2cc(c3O[C@@H]2O[C@H](CO)[C@@H](O)[C@H](O)[C@H]2O[C@H]2C[C@](C)(N)[C@H](O)[C@H](C)O2)Oc2ccc(cc2Cl)[C@H]1O

>  <endpoint_name>
MIC90

>  <data_value>
0.06

$$$$

Request body: readout MIC90, system C. difficile strain ATCC 43596, query CN(C)c1cc(CNCC(C)(C)C)c(O)c2c1C[C@H]1C[C@H]3[C@H](N(C)C)C(O)=C(C(N)=O)C(=O)[C@@]3(O)C(O)=C1C2=O (stereo in doubt) . Return the value.
0.06

----------
Entries and their measured MIC50 follow.
system: C. difficile strains (N = 27); experiment: MIC by broth microdilution against C. difficile clinical isolates; format: cell-based; settings: Clostridioides difficile; 27 isolates; Wilkins-Chalgren broth, 48 hours anaerobic
Unit µg/mL implied. Number only.

>  <molecule>
Cc1ncc([N+](=O)[O-])n1CCO [Metronidazole]

>  <data_value>
120

$$$$
>  <molecule>
C[C@@H](O)[C@H]1C(=O)N2C(C(=O)O)=C(SCCN=CN)C[C@H]12 [Imipenem]

>  <data_value>
4000

$$$$
>  <molecule>
CO/N=C(\C(=O)N[C@@H]1C(=O)N2C(C(=O)O)=C(COC(C)=O)CS[C@H]12)c1csc(N)n1 [Cefotaxime]

>  <data_value>
64000

$$$$
>  <molecule>
CCC[C@@H]1C[C@@H](C(=O)N[C@@H]([C@H]2O[C@H](SC)[C@H](O)[C@@H](O)[C@H]2O)[C@H](C)Cl)N(C)C1 [Clindamycin]

>  <data_value>
4000

$$$$

// next entry
Can you look up the measured MIC50 of C[C@H]1c2cccc(O)c2C(=O)C2=C(O)[C@]3(O)C(=O)C(C(N)=O)=C(O)[C@@H](N(C)C)[C@@H]3[C@@H](O)[C@@H]21 [Doxycycline] for me?
30
